Assay: ATG_TGFb_CIS: Attagene CIS-FACTORIAL HepG2 Assay for human Transforming Growth Factor (TGF) (AID 2282967)
Conditions: HepG2 Attagene CIS TGFb reporter, mRNA transcription; actives raise or lower the signal
Calls of active or inactive are those of the source. Rule for the calls: active = hit-call score of the fitted dose curve at least 0.9, where 1 is the maximum; inactive = score below 0.9.
Outcomes: y = active, n = inactive

compound: CC1CCC(C(=O)O)CC1 (stereo unspecified)
label value: n
//
compound: CC1CNCC(C)O1 (stereo unspecified)
label value: n
//
compound: O=C(CCCN1CCC(O)(c2ccc(Cl)cc2)CC1)c1ccc(F)cc1
label value: n
//
compound: CCOC(OCC)C(=O)c1ccccc1
label value: n
//
compound: O=C(Nc1ccc(Cl)c(Cl)c1)c1cc(Cl)cc(Cl)c1O
label value: n
//
compound: C=CCOCC(CO)(CO)CO
label value: n
//
compound: COC1=CC(=O)C[C@@H](C)[C@]12Oc1c(Cl)c(OC)cc(OC)c1C2=O
label value: n
//
compound: O=C(Nc1cccc([N+](=O)[O-])c1)c1cc2ccccc2cc1O
label value: y
//
compound: CCC(C)c1ccccc1O (stereo unspecified)
label value: n
//
compound: O=C(O)CN(CCCN(CC(=O)O)CC(=O)O)CC(=O)O
label value: n
//
compound: O=C1OC(=O)C(F)(F)C1(F)F
label value: n
//
compound: O=C(c1cc(O)c(O)c(O)c1)c1ccc(O)c(O)c1O
label value: n
//
compound: CC(=O)CC(C)C
label value: n
//
compound: C=C(c1ccc(C(=O)O)cc1)c1cc2c(cc1C)C(C)(C)CCC2(C)C
label value: n
//
compound: CC(C)(O)C(=O)c1ccccc1
label value: n
//
compound: CN(Cc1cnc2nc(N)nc(N)c2n1)c1ccc(C(=O)N[C@@H](CCC(=O)O)C(=O)O)cc1
label value: n
//
compound: Clc1ccc(Nc2nnc(Cc3ccncc3)c3ccccc23)cc1
label value: n
//
compound: Cc1[nH]nc2c1N=C(c1ccccc1Cl)c1cc([N+](=O)[O-])ccc1N2
label value: n
//
compound: CCCCCCC(C)(C)C(=O)O
label value: n
//
compound: OCC1CCC(CO)CC1 (stereo unspecified)
label value: n
//
compound: CCCCCCCCCCCC[N+](C)(C)CCCCCCCCCCCC
label value: n
//
compound: Cn1sccc1=O
label value: n
//
compound: FC1(F)C=CC(F)(F)C1(F)F
label value: n
//
compound: COC(O)c1ccccc1 (stereo unspecified)
label value: n
//
compound: CCCCc1ccc2ccccc2c1S(=O)(=O)O
label value: n
//
compound: CCCCCCCCCCCCCCC
label value: n
